Assay: collision cross section of modified peptide (TIMS, N2, iRT-aligned); higher = larger / more extended gas-phase ion
Conditions: charge state: 2; modification: Acetyl (K)
Quick rule for you: collision cross section at 400 Å² or higher means satisfied, lower means not satisfied.

Check the entry GETASKLQSEISR [_GETASK(Acetyl (K))LQSEISR_] : does collision cross section equal or exceed 400 Å²?
not satisfied

Decide: is the reported value of collision cross section for DSSPTTNSKLSALQR [_DSSPTTNSK(Acetyl (K))LSALQR_] equal to or greater than 400 Å²?
satisfied

Test whether the sequence VGLQVVAVKAPGFGDNR [_VGLQVVAVK(Acetyl (K))APGFGDNR_] records collision cross section of 400 Å² or higher.
satisfied

Reported collision cross section at or above 400 Å²? AGQKLIDVNHYAK [_AGQK(Acetyl (K))LIDVNHYAK_]
satisfied

Could you please find out whether GTITVSAQELKDNR [_GTITVSAQELK(Acetyl (K))DNR_] has collision cross section that meets 400 Å² or exceeds it?
satisfied

Given ITGKNQVTATK [_ITGK(Acetyl (K))NQVTATK_] , state whether its collision cross section is at least 400 Å².
not satisfied

* * *

Assay: collision cross section of modified peptide (TIMS, N2, iRT-aligned); higher = larger / more extended gas-phase ion
Conditions: charge state: 3; modification: Trimethyl (K)
For each of the sequences below, state its collision cross section.
Return type: number; implicit unit Å².

Report collision cross section for GGPGSTLSFVGKR [_GGPGSTLSFVGK(Trimethyl (K))R_]
424.62

Supply reported collision cross section belonging to this sequence: SITHSTVGSKGEK [_SITHSTVGSK(Trimethyl (K))GEK_]
473.59

Give me measured collision cross section, please, for this sequence: VFIGNLNTLVVKK [_VFIGNLNTLVVK(Trimethyl (K))K_]
485.88

Provide one value: measured collision cross section of GADFLVTEVENGGSLGSKK [_GADFLVTEVENGGSLGSK(Trimethyl (K))K_]
548.47

Give collision cross section for the following sequence: LEEVTGKLQVAR [_LEEVTGK(Trimethyl (K))LQVAR_]
471.9

Quote collision cross section reported for SLFFGGKGAPLQR [_SLFFGGK(Trimethyl (K))GAPLQR_] please.
456.34

Give reported collision cross section value for DESFLGKLGGTLAR [_DESFLGK(Trimethyl (K))LGGTLAR_]
477.03

Please indicate collision cross section recorded for SSGPGGQNVNKVNSK [_SSGPGGQNVNK(Trimethyl (K))VNSK_]
442.26

Give recorded collision cross section. SKHLQEQLNELK [_SK(Trimethyl (K))HLQEQLNELK_]
506.13

Quote collision cross section reported for GTVPDDAVEALADSLGKK [_GTVPDDAVEALADSLGK(Trimethyl (K))K_] please.
534.79

Hello, please tell me recorded collision cross section for this one: VYIASSSGSTAIKK [_VYIASSSGSTAIK(Trimethyl (K))K_]
501.36

Look up and report measured collision cross section for this entry: SLGEPAAGEGSAKR [_SLGEPAAGEGSAK(Trimethyl (K))R_]
462.02

Tell us which collision cross section value is on record for TQAYQDQKPGTSGLR [_TQAYQDQK(Trimethyl (K))PGTSGLR_]
476

Report measured collision cross section; entry is VTLEVGKVIQQGR [_VTLEVGK(Trimethyl (K))VIQQGR_]
471.08

Return collision cross section for the following sequence: VETTVTSLKTK [_VETTVTSLK(Trimethyl (K))TK_]
455.28

Read off the recorded collision cross section for YIEIYVQKVNPSR [_YIEIYVQK(Trimethyl (K))VNPSR_]
499.16

Please give the documented collision cross section of IVSGKDYNVTANSK [_IVSGK(Trimethyl (K))DYNVTANSK_]
475.29

// fetch collision cross section given entry SGKFTQQDIDEAK [_SGK(Trimethyl (K))FTQQDIDEAK_]
472.62

Return the recorded collision cross section value; entry: FGTINIVHPKLGSYTK [_FGTINIVHPK(Trimethyl (K))LGSYTK_]
502.05

Respond only with collision cross section recorded for DTPTSAGPNSFNKGK [_DTPTSAGPNSFNK(Trimethyl (K))GK_]
457.6

Let me know recorded collision cross section for ALASIDSKLNQAK [_ALASIDSK(Trimethyl (K))LNQAK_] , thanks.
444.8

Identify measured collision cross section associated with VGIDTPDIDIHGPEGKLK [_VGIDTPDIDIHGPEGK(Trimethyl (K))LK_]
543.29

Provide only the value of recorded collision cross section for GEVGAGAGPGAQAGPSAKR [_GEVGAGAGPGAQAGPSAK(Trimethyl (K))R_]
489.76

Using the record for FSAYIKNSNPALNDNLEK [_FSAYIK(Trimethyl (K))NSNPALNDNLEK_] , state its measured collision cross section.
516.88

Identify measured collision cross section associated with YEEIVKEVSTYIK [_YEEIVK(Trimethyl (K))EVSTYIK_]
498.32

Give the measured collision cross section for TLDEILQEKK [_TLDEILQEK(Trimethyl (K))K_]
439.75

Give a short answer stating reported collision cross section for VGTASVLQPVKK [_VGTASVLQPVK(Trimethyl (K))K_] .
455.76

Note down collision cross section recorded for SDDESSQKDIK [_SDDESSQK(Trimethyl (K))DIK_]
430.76

Determine from records and report collision cross section for IINEPTAAAIAYGLDKK [_IINEPTAAAIAYGLDK(Trimethyl (K))K_]
559.85

Look up and report measured collision cross section for this entry: VNALKNLQVK [_VNALK(Trimethyl (K))NLQVK_]
418.46

Output collision cross section of STGLELETPSLVPVKK [_STGLELETPSLVPVK(Trimethyl (K))K_]
522.47

For SKLLFSNTAAQK [_SK(Trimethyl (K))LLFSNTAAQK_] , write its collision cross section.
446.07

Item TTGFYSGFSEVAEKR [_TTGFYSGFSEVAEK(Trimethyl (K))R_] : provide collision cross section
508.85

Tell us which collision cross section value is on record for VLDSGAPIKIPVGPETLGR [_VLDSGAPIK(Trimethyl (K))IPVGPETLGR_]
508.9

Answer with reported collision cross section of VQGGALEDSQLVAGVAFKK [_VQGGALEDSQLVAGVAFK(Trimethyl (K))K_]
564.46

Dear colleague, please send me the reported collision cross section for GTITVSAQELKDNR [_GTITVSAQELK(Trimethyl (K))DNR_] when you can.
479.04

Hello, please tell me recorded collision cross section for this one: GSLEKGSPEDK [_GSLEK(Trimethyl (K))GSPEDK_]
436.7

Return reported collision cross section. Input sequence: DVNAAIAAIKTK [_DVNAAIAAIK(Trimethyl (K))TK_]
465.71

Tell us which collision cross section value is on record for SLEEEGAAHSGKR [_SLEEEGAAHSGK(Trimethyl (K))R_]
465.19

Using the record for VNIGQGSHPQKVK [_VNIGQGSHPQK(Trimethyl (K))VK_] , state its measured collision cross section.
473.39

Identify measured collision cross section associated with PSVGSQSNQAGQGKR [_PSVGSQSNQAGQGK(Trimethyl (K))R_]
463.16

Give me measured collision cross section, please, for this sequence: ISALQGKLSK [_ISALQGK(Trimethyl (K))LSK_]
419.39

* * *

Would you mind telling me the reported collision cross section of each entry?
Assay: collision cross section of modified peptide (TIMS, N2, iRT-aligned); higher = larger / more extended gas-phase ion
Conditions: charge state: 2; modification: Biotin
State just the number; it will be interpreted in Å².

Name the recorded collision cross section of the item SSFAYKDQNENR [_SSFAYK(Biotin)DQNENR_] in your answer.
421.15

For the sequence GTITVSAQELKDNR [_GTITVSAQELK(Biotin)DNR_] , report collision cross section.
437.8

Quote collision cross section reported for PSVGSQSNQAGQGKR [_PSVGSQSNQAGQGK(Biotin)R_] please.
421.78

Quick one: give measured collision cross section for SDDESSQKDIK [_SDDESSQK(Biotin)DIK_]
393.46

Item LLEEEDSKLK [_LLEEEDSK(Biotin)LK_] : provide collision cross section
405.12

Please list collision cross section recorded for the sequence ISALQGKLSK [_ISALQGK(Biotin)LSK_]
376.95

Consider the sequence LLFSNTAAQKLR [_LLFSNTAAQK(Biotin)LR_] and give its recorded collision cross section.
418.21

Indicate its recorded collision cross section; the sequence in question is LLIVSTTPYSEKDTK [_LLIVSTTPYSEK(Biotin)DTK_]
480.64

Return collision cross section for the following sequence: ASEALLKQLK [_ASEALLK(Biotin)QLK_]
396.36

Could you please provide reported collision cross section for GEVGAGAGPGAQAGPSAKR [_GEVGAGAGPGAQAGPSAK(Biotin)R_] ? Thanks!
440.5

Determine from records and report collision cross section for SGFGKFER [_SGFGK(Biotin)FER_]
352.97

Please look at this sequence and report its collision cross section: AAINQKLIETGER [_AAINQK(Biotin)LIETGER_]
426.96

For LLEQKTQESQK [_LLEQK(Biotin)TQESQK_] , write its collision cross section.
419.49

Hello, please tell me recorded collision cross section for this one: DYSSGFGGKYGVQADR [_DYSSGFGGK(Biotin)YGVQADR_]
450.72

Tell me its collision cross section given SSGPGGQNVNKVNSK [_SSGPGGQNVNK(Biotin)VNSK_] as the entry.
422.28

Specify collision cross section for SDSGKPYYYNSQTK [_SDSGK(Biotin)PYYYNSQTK_] and stop.
440.01

State, in one line, measured collision cross section of IGNSYFKEEK [_IGNSYFK(Biotin)EEK_]
398.98

Let me know recorded collision cross section for VSPASSVDSNIPSSQGYKK [_VSPASSVDSNIPSSQGYK(Biotin)K_] , thanks.
474.43

Report collision cross section, nothing else, for this sequence: ASAISIKLGSSK [_ASAISIK(Biotin)LGSSK_]
410.18

Tell me its collision cross section given SLEEEGAAHSGKR [_SLEEEGAAHSGK(Biotin)R_] as the entry.
428.85

Give collision cross section for TTEETSKPK [_TTEETSK(Biotin)PK_]
372.34

Input TVSKVDDFLANEAK [_TVSK(Biotin)VDDFLANEAK_] , output reported collision cross section.
445.28

Give the reported collision cross section for this sequence. GGPGSTLSFVGKR [_GGPGSTLSFVGK(Biotin)R_]
397.77

Quickly give me recorded collision cross section for DESFLGKLGGTLAR [_DESFLGK(Biotin)LGGTLAR_]
424.81
